Taken from patent US8680282B2.

# collection of GI50 values tested on H358
Write it as a number; the unit µM goes unstated.

Entry CCCCCCCCc1ccc(NS(=O)(=O)NC2(CC(=O)O)CCC[N+](C)(C)C2)cc1 (stereo not drawn) [Example S16, 2,2,2-trifluoroacetate] has what GI50?
1.4

Entry CCCCCCCCc1ccc(NS(=O)(=O)NC2(CC(=O)O)CC[N+](C)(C)CC2)cc1 [Example S8, 2,2,2-trifluoroacetate] has what GI50?
0.9

Entry CCCCCCCCc1ccc(NC(=O)NC2(CC(=O)O)CCC[N+](C)(C)C2)cc1 (stereo not drawn) [Example S10, 2,2,2-trifluoroacetate] has what GI50?
1

* * *

Listed compounds paired with reported GI50
System: PC-3

Lab request: please report GI50 under test system PC-3 for CCCCCCCCc1ccc(NS(=O)(=O)NC2(CC(=O)O)CCC[N+](C)(C)C2)cc1 (stereo not shown) [Example S16, 2,2,2-trifluoroacetate]
2.1 µM

* * *

Test system: SW626
EXPERIMENT_DESCRIPTION: Cancer cell growth inhibition, SRB assay
Assay type: cell-based, human
Design: scale not given here
STUDY_CONDITIONS: SW626; at 10 μM; SRB at Day 6; NE = no activity at 10 micromolar
Listed molecules paired with reported Percentage of Growth Inhibition
Give your result as the value with the unit written after it.

{"MOLECULE": "CCCCCCCCc1ccc(NC(=O)NC2(CC(=O)O)CCN(C)CC2)cc1 [Example S1, 2,2,2-trifluoroacetate]", "OBSERVED_MEASUREMENT": "0.05142%"}
{"MOLECULE": "CCCCCCCCc1ccc(NS(=O)(=O)NC2(CC(=O)O)CNC2)cc1.O=C(O)C(F)(F)F", "OBSERVED_MEASUREMENT": "0.04727%"}
{"MOLECULE": "CCCCCCCCCCc1ccc(C(=O)NC2(CC(=O)O)CCN(C)C2)cc1 (centres unmarked) [Example S21, 2,2,2-trifluoroacetate]", "OBSERVED_MEASUREMENT": "0.154%"}
{"MOLECULE": "CCCCCc1ccc(S(=O)(=O)NC2(CC(=O)O)CC[N+](C)(C)C2)cc1 (centres unmarked) [Example S20, 2,2,2-trifluoroacetate]", "OBSERVED_MEASUREMENT": "0.07399%"}

Lab request: please report Percentage of Growth Inhibition under test system SW626 for CCCCCCCCCCc1ccc(C(=O)NC2(CC(=O)O)CC[N+](C)(C)C2)cc1 (centres unmarked) [Example S22, 2,2,2-trifluoroacetate]
0.2198%

Lab request: please report Percentage of Growth Inhibition under test system SW626 for CCCCCCCCc1ccc(NC(=O)NC2(CC(=O)O)CCC[NH+](C)C2)cc1 (centres unmarked) [Example S9, 2,2,2-trifluoroacetate]
0.02424%

Lab request: please report Percentage of Growth Inhibition under test system SW626 for C[N+]1(C)CCC(CC(=O)O)(NC(=O)c2ccc(C#Cc3ccccc3)o2)CC1 [Example S6, 2,2,2-trifluoroacetate]
0.2084%

Lab request: please report Percentage of Growth Inhibition under test system SW626 for CCCCCc1ccc(S(=O)(=O)NC2(CC(=O)O)CNC2)cc1 [Example S25, 2,2,2-trifluoroacetate]
0.07606%

Lab request: please report Percentage of Growth Inhibition under test system SW626 for O=C(O)CC1(NC(=O)c2ccc(C#Cc3ccccc3)o2)CNC1 [Example S26, 2,2,2-trifluoroacetate]
0.07378%

Lab request: please report Percentage of Growth Inhibition under test system SW626 for CCCCCc1ccc(S(=O)(=O)NC2(CC(=O)O)CCC[N+](C)(C)C2)cc1 (centres unmarked) [Example S12, 2,2,2-trifluoroacetate]
0.00486%

Lab request: please report Percentage of Growth Inhibition under test system SW626 for C[N+]1(C)CCC(CC(=O)O)(NC(=O)c2ccc(CCc3ccccc3)o2)CC1 [Example S5, 2,2,2-trifluoroacetate]
0.03032%

* * *

Test system: PC-3
METRIC_NAME: GI50 (µM)
Write it as a number; the unit µM goes unstated.

Example entries begin here.
{"MOLECULE": "CCCCCCCCc1ccc(NC(=O)NC2(CC(=O)O)CC[N+](C)(C)C2)cc1 (centres unmarked) [Example S18, 2,2,2-trifluoroacetate]", "ASSAYED_SYSTEM": "PC-3", "OBSERVED_MEASUREMENT": 6.6}
{"MOLECULE": "CCCCCCCCc1ccc(NC(=O)NC2(CC(=O)O)CNC2)cc1 [Example S23, 2,2,2-trifluoroacetate]", "ASSAYED_SYSTEM": "PC-3", "OBSERVED_MEASUREMENT": 24}
{"MOLECULE": "CCCCCCCCc1ccc(NS(=O)(=O)NC2(CC(=O)O)CC[N+](C)(C)CC2)cc1 [Example S8, 2,2,2-trifluoroacetate]", "ASSAYED_SYSTEM": "PC-3", "OBSERVED_MEASUREMENT": 1.7}

Please turn your attention to the following entry.
Lab request: please report GI50 under test system PC-3 for CCCCCCCCc1ccc(N(C)S(=O)(=O)NC2(CC(=O)O)CCC[N+](C)(C)C2)cc1 (centres unmarked)
0.7

* * *

# collection of GI50 values tested on H358
Write it as a number; the unit µM goes unstated.

Example entries begin here.
{"COMPOUND": "CCCCCCCCc1ccc(N(C)S(=O)(=O)NC2(CC(=O)O)CCC[N+](C)(C)C2)cc1 (stereo not shown)", "GI50 (µM)": 2.9}
{"COMPOUND": "CCCCCc1ccc(S(=O)(=O)NC2(CC(=O)O)C[N+](C)(C)C2)cc1 [Example S29, 2,2,2-trifluoroacetate]", "GI50 (µM)": 86}
{"COMPOUND": "CCCCCCCCc1ccc(NC(=O)NC2(CC(=O)O)CNC2)cc1 [Example S23, 2,2,2-trifluoroacetate]", "GI50 (µM)": 14}

Please turn your attention to the following entry.
Lab request: please report GI50 under test system H358 for CCCCCCCCc1ccc(NS(=O)(=O)NC2(CC(=O)O)CCN(C)CC2)cc1 [Example S7, 2,2,2-trifluoroacetate]
20

* * *

# collection of GI50 values tested on A549
Write it as a number; the unit µM goes unstated.

Example entries begin here.
{"COMPOUND": "CCCCCCCCc1ccc(NC(=O)NC2(CC(=O)O)CC[N+](C)(C)CC2)cc1 [Example S2, 2,2,2-trifluoroacetate]", "ASSAYED_SYSTEM": "A549", "VALUE_UNITS": "µM", "GI50": 99}
{"COMPOUND": "CCCCCCCCc1ccc(NC(=O)NC2(CC(=O)O)CC[N+](C)(C)C2)cc1 (stereo not shown) [Example S18, 2,2,2-trifluoroacetate]", "ASSAYED_SYSTEM": "A549", "VALUE_UNITS": "µM", "GI50": 38}
{"COMPOUND": "CCCCCCCCc1ccc(NC(=O)NC2(CC(=O)O)CCC[N+](C)(C)C2)cc1 (stereo not shown) [Example S10, 2,2,2-trifluoroacetate]", "ASSAYED_SYSTEM": "A549", "VALUE_UNITS": "µM", "GI50": 73}

Please turn your attention to the following entry.
Lab request: please report GI50 under test system A549 for CCCCCCCCc1ccc(N(C)S(=O)(=O)NC2(CC(=O)O)CCC[N+](C)(C)C2)cc1 (stereo not shown) [Example S30]
1

* * *

Tested on: SW480
EXPERIMENT_DESCRIPTION: Cancer cell growth inhibition, SRB assay
Format: cell-based, human
STUDY_CONDITIONS: SW480; at 10 μM; SRB at Day 6; NE = no activity at 10 micromolar
Binary call on Percentage of Growth Inhibition: rule met from 0.04% upward, rule not met beneath that.

Below, 2 compounds whose answers are already recorded.
{"COMPOUND": "CCCCCCCCc1ccc(NC(=O)NC2(CC(=O)O)CCC[NH+](C)C2)cc1 (centres unmarked) [Example S9, 2,2,2-trifluoroacetate]", "CATEGORY": "rule not met"}
{"COMPOUND": "CCCCCc1ccc(S(=O)(=O)NC2(CC(=O)O)CCN(C)CC2)cc1 [Example S3, 2,2,2-trifluoroacetate]", "CATEGORY": "rule not met"}

Check if Percentage of Growth Inhibition >= 0.04% (inclusive). Item: O=C(O)CC1(NC(=O)c2ccc(C#Cc3ccccc3)o2)CNC1 [Example S26, 2,2,2-trifluoroacetate]
rule met

Check if Percentage of Growth Inhibition >= 0.04% (inclusive). Item: CCCCCCCCc1ccc(NC(=O)NC2(CC(=O)O)CCN(C)CC2)cc1 [Example S1, 2,2,2-trifluoroacetate]
rule met

Check if Percentage of Growth Inhibition >= 0.04% (inclusive). Item: CCCCCc1ccc(S(=O)(=O)NC2(CC(=O)O)CC[N+](C)(C)C2)cc1 (centres unmarked) [Example S20, 2,2,2-trifluoroacetate]
rule not met

Check if Percentage of Growth Inhibition >= 0.04% (inclusive). Item: CCCCCCCCCCc1ccc(C(=O)NC2(CC(=O)O)CCN(C)C2)cc1 (centres unmarked) [Example S21, 2,2,2-trifluoroacetate]
rule met

Check if Percentage of Growth Inhibition >= 0.04% (inclusive). Item: CCCCCCCCCCc1ccc(C(=O)NC2(CC(=O)O)CC[N+](C)(C)C2)cc1 (centres unmarked) [Example S22, 2,2,2-trifluoroacetate]
rule met

Check if Percentage of Growth Inhibition >= 0.04% (inclusive). Item: C[N+]1(C)CCC(CC(=O)O)(NC(=O)c2ccc(C#Cc3ccccc3)o2)CC1 [Example S6, 2,2,2-trifluoroacetate]
rule not met
